test system: 786-0 renal; assay: NCI tumour cell line growth inhibition, 48 h
Please provide measured TGI for the entries that follow.

Lookup: // fetch TGI; item: Clc1ccc(Nc2nc3ccccc3nc2-c2cccs2)cc1Cl ; system: 786-0 renal
Found: > 100 µM

Lookup: State recorded TGI with 786-0 renal, entry O=S1(=O)OCCOS(=O)(=O)C1(F)Br , no comment.
Found: > 100 µM

Lookup: Write down measured TGI (786-0 renal) for this compound. CC#CCC1CCC(OCC)=CC1=O (stereo not drawn)
Found: > 100 µM

###

tested on: NCI-H522 lung; test: NCI tumour cell line growth inhibition, 48 h
MEASUREMENT_NAME: TGI

Lookup: Please give measured TGI of the following entry: OCC12C3C4C5C3C1C5C42 (centres undefined)
Found: > 100 µM

Lookup: Give the reported value of TGI for this record: O=C(NC1CCCCC1NC(c1ccccc1)(c1ccccc1)c1ccccc1)C(=O)NC1CCCCC1NC(c1ccccc1)(c1ccccc1)c1ccccc1 (centres undefined)
Found: > 100 µM

Lookup: Let me know recorded TGI for CN(C)c1ccc(C(Cc2ccccc2)C2NC(=S)NC2=O)cc1 (centres undefined) , thanks.
Found: > 100 µM

Lookup: Please list TGI recorded for the compound OCC1OC(n2cnc3c(N/N=C\c4ccccn4)ncnc32)C(O)C1O (centres undefined)
Found: > 100 µM

Lookup: Answer with reported TGI of O=C1CCCN1C(=O)CS(=O)(=O)c1ccccc1
Found: > 100 µM

Lookup: Give me measured TGI, please, for this compound: O=C(O)c1ccc(C(=O)c2ccccc2)c(C(=O)O)c1
Found: > 100 µM

Lookup: Output TGI of COc1cc2c3c(c1)CCCN3CCC2
Found: > 10 µM

Lookup: Supply recorded TGI for O=C(OCc1ccc2ccccc2n1)c1cn(C2CC2)c2cc(N3CCN(Cc4ccc5ccccc5n4)CC3)c(F)cc2c1=O here.
Found: > 100 µM

Lookup: Kindly indicate its recorded TGI. Item: c1cnn2ncc(-c3ccnc(NCCCN4CCOCC4)n3)c2c1
Found: > 25 µM
